tested on: C. albicans (ATCC 753); type: cell-based, Candida albicans; conditions: ATCC 753, 3 h, pH 7.4
Where no end group is shown, it is not given here.
assay_endpoint: MIC (µM)
Numbers only, in µM.

>>> numeric_value("RRGFWKRLRRRLRRFGDRIRNRFRNFREKLPDPFPG [Ancestral WAM]")
6.45
>>> numeric_value("KRGLWESLKRKATKLGDDIRNTLRNFKIKFPVPRQG [WAM2]")
1.47
>>> numeric_value("RPWAGNGSVHRYTVLSPRLKTQ [PAM2]")
2.50

## Input Dear colleague, I am looking for the recorded MIC of the following sequence: KRGFGKKLRKRLKKFRNSIKKRLKNFNVVIPIPLPG [WAM1]
## Output 1.30

* * *

Test system: B. subtilis
Type: cell-based, Bacillus subtilis
Conditions: 3 h, pH 7.4
Protocol: Peptides were synthesized and HPLC purified (AusPep Pty Ltd). The two-stage radial diffusion assay used in this study has been described elsewhere. […] The clear zone was measured using a magnified transilluminator and expressed in units (1 mm = 10 U) after subtracting the well diameter. […] Colonies were counted after 17–22 h incubation at 35°C using an automatic colony counter (Don Whitley Scientific, Australia).
Where no end group is shown, it is not given here.
Assign labels as follows, please: Fulfilled for MIC below 2 µM; Not fulfilled for MIC equal to or exceeding 2 µM.

Worked examples, 3 sequences total:
>>> label_class("KRGLWESLKRKATKLGDDIRNTLRNFKIKFPVPRQG [WAM2]")
"Not fulfilled"
>>> label_class("RRGFWKRLRRRLRRFGDRIRNRFRNFREKLPDPFPG [Ancestral WAM]")
"Fulfilled"
>>> label_class("RPWAGNGSVHRYTVLSPRLKTQ [PAM2]")
"Not fulfilled"

## Input Please check: MIC for KRGFGKKLRKRLKKFRNSIKKRLKNFNVVIPIPLPG [WAM1] , strictly under 2 µM or not?
## Output Fulfilled

* * *

tested on: P. aeruginosa (ATCC 27853); type: cell-based, Pseudomonas aeruginosa; details: ATCC 27853, 3 h, pH 7.4
Where no end group is shown, it is not given here.
Would you kindly list MIC for each of these sequences?
One number for each entry, in µM.

>>> numeric_value("RTKRRIKLIKNGVKKVKDILKNNNIIILPGSNEK [PAM1]")
1.89
>>> numeric_value("KRGLWESLKRKATKLGDDIRNTLRNFKIKFPVPRQG [WAM2]")
1.29
>>> numeric_value("RRGFWKRLRRRLRRFGDRIRNRFRNFREKLPDPFPG [Ancestral WAM]")
2.06
>>> numeric_value("RPWAGNGSVHRYTVLSPRLKTQ [PAM2]")
0.73

# next sequence below
## Input Return MIC measured with P. aeruginosa (ATCC 27853) given this sequence: KRGFGKKLRKRLKKFRNSIKKRLKNFNVVIPIPLPG [WAM1]
## Output 0.77
